Data export: Ki values recorded with Beta-2 adrenergic receptor (Homo sapiens, UniProt P07550).
Sequence (P07550 whole entry): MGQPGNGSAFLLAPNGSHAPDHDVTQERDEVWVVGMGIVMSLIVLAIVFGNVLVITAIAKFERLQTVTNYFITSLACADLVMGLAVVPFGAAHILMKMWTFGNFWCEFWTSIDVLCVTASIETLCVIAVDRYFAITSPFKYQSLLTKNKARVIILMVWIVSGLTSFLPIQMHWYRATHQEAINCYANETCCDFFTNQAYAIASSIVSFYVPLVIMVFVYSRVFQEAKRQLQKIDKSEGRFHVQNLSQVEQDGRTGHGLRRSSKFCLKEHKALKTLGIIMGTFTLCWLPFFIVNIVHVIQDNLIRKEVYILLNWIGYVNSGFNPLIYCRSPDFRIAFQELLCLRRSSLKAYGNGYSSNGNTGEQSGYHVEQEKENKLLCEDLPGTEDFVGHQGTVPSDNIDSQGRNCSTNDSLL

Examples with answers:
| compound_structure_string | Ki |
| --- | --- |
| O=c1[nH]c2c([nH]c3ccccc32)c(=O)n1CCN1CCN(c2ccc(Cl)cc2)CC1 | > 100 µM |
| COc1ccccc1N1CCN(CCn2c(=O)[nH]c3c([nH]c4ccccc43)c2=O)CC1 | > 100 µM |
| COc1ccccc1N1CCN(CCCn2c(=O)[nH]c3c([nH]c4ccccc43)c2=O)CC1 | 1.18 µM |
| O=c1[nH]c2c([nH]c3ccccc32)c(=O)n1CCN1CCN(c2ccccc2)CC1 | > 100 µM |

Task item: Specify measured Ki for COc1ccc(N2CCN(CCn3c(=O)[nH]c4c([nH]c5ccccc54)c3=O)CC2)cc1 .
Reply: > 100 µM

Task item: Specify measured Ki for O=c1[nH]c2c([nH]c3ccccc32)c(=O)n1CCN1CCN(c2ccccc2Cl)CC1 .
Reply: > 100 µM

====

# test_system: 5-hydroxytryptamine receptor 1A (Rattus norvegicus, UniProt P19327)
# Sequence (P19327 whole entry): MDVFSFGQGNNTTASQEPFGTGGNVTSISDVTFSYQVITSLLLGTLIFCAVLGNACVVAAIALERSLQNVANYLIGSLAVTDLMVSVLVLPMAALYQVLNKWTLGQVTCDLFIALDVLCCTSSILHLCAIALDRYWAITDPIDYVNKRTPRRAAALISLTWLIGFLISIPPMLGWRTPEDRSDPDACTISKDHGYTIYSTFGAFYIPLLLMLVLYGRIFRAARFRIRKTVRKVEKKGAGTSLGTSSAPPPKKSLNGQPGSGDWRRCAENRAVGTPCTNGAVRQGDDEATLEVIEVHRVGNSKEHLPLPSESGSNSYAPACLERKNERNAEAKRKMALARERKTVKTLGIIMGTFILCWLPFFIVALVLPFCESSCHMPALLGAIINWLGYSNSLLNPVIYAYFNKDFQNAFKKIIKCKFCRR
# protocol: Binding affinity for 5-hydroxytryptamine 1A receptor measured by displacing [3H]8-OH-DPAT from rat cortical membranes
measured_property: Ki (nM)
Give the value, in units of nM, as a plain number.

| compound_structure_string | measured_property | measured_number |
| --- | --- | --- |
| COc1ccccc1N1CCN(CCn2c(=O)[nH]c3c([nH]c4ccccc43)c2=O)CC1 | Ki | 50 |

Task item: Specify measured Ki for COc1ccccc1N1CCN(CCn2c(=O)c3c(c4ccccc4n3C)n(C)c2=O)CC1 .
Reply: 1.5

Task item: Specify measured Ki for COc1ccccc1N1CCNCC1 .
Reply: 281

Task item: Specify measured Ki for COc1ccccc1N1CCN(CCCn2c(=O)[nH]c3c([nH]c4ccccc43)c2=O)CC1 .
Reply: 308

====

Entries and their measured Ki follow.
# test_system: Adrenergic receptor alpha-2 (Homo sapiens, UniProt P08913+P18825+P18089)
# Sequence (P08913 whole entry): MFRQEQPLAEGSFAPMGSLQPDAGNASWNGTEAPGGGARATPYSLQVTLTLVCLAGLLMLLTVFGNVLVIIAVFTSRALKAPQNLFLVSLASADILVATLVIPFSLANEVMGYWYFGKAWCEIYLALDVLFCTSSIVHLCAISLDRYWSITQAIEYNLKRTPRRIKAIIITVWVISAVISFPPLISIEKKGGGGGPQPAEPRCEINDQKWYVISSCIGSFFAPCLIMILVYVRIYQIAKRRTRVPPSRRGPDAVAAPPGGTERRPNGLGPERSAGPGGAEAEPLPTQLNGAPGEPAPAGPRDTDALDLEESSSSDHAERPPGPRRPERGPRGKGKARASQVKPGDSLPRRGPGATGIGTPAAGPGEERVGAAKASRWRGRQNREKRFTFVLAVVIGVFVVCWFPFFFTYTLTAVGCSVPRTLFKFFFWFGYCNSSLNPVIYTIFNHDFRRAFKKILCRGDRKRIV
# Sequence (P18825 whole entry): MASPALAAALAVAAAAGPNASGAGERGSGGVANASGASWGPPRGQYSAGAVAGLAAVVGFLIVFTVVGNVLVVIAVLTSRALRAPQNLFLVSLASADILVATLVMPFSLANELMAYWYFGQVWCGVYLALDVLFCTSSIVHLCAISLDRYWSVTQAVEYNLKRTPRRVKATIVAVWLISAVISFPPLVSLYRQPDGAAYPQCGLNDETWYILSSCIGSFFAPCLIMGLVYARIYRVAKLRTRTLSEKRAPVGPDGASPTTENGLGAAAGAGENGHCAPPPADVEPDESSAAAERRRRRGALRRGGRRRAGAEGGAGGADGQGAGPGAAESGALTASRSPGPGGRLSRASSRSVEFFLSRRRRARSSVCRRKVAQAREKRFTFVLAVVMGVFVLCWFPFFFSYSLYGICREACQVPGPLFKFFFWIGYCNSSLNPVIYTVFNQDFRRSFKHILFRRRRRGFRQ
# Sequence (P18089 whole entry): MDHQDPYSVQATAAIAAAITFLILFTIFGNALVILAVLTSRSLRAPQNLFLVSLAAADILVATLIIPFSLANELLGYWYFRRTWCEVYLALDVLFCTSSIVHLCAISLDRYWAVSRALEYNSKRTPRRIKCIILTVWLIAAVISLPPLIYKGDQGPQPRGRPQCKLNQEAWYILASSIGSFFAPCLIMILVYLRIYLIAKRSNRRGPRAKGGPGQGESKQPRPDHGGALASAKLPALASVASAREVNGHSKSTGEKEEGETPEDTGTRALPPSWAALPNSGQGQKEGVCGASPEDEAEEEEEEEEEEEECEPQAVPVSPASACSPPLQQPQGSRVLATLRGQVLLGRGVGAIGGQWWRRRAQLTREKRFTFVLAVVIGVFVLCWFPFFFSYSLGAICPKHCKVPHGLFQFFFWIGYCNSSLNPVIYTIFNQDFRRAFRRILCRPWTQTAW
# protocol: Binding affinity towards Alpha-2 adrenergic receptor in human platelet membranes using [3H]yohimbine
# Assay type: cell membranes

Examples with answers:
| compound_structure_string | measured_property | result |
| --- | --- | --- |
| O=c1[nH]c2c([nH]c3ccccc32)c(=O)n1CCN1CCN(c2ccccc2)CC1 | Ki | > 100 µM |
| COc1ccc(N2CCN(CCn3c(=O)[nH]c4c([nH]c5ccccc54)c3=O)CC2)cc1 | Ki | > 100 µM |
| O=c1[nH]c2c([nH]c3ccccc32)c(=O)n1CCN1CCN(c2ccccc2Cl)CC1 | Ki | > 100 µM |

Task item: Consider the molecule O=c1[nH]c2c([nH]c3ccccc32)c(=O)n1CCN1CCN(c2ccc(Cl)cc2)CC1 tested on Adrenergic receptor alpha-2 (Homo sapiens, UniProt P08913+P18825+P18089); state its Ki.
Reply: > 100 µM

Task item: Consider the molecule COc1ccccc1N1CCN(CCCn2c(=O)[nH]c3c([nH]c4ccccc43)c2=O)CC1 tested on Adrenergic receptor alpha-2 (Homo sapiens, UniProt P08913+P18825+P18089); state its Ki.
Reply: 0.055 µM

Task item: Consider the molecule COc1ccccc1N1CCN(CCn2c(=O)c3c(c4ccccc4n3C)n(C)c2=O)CC1 tested on Adrenergic receptor alpha-2 (Homo sapiens, UniProt P08913+P18825+P18089); state its Ki.
Reply: 2.215 µM
